- study-target: HPV(11) E1 helicase enzyme (MBP fusion protein), ATPase activity (Human papillomavirus 11, UniProt P04014)
- Sequence (P04014 whole entry, the tested form may be a part): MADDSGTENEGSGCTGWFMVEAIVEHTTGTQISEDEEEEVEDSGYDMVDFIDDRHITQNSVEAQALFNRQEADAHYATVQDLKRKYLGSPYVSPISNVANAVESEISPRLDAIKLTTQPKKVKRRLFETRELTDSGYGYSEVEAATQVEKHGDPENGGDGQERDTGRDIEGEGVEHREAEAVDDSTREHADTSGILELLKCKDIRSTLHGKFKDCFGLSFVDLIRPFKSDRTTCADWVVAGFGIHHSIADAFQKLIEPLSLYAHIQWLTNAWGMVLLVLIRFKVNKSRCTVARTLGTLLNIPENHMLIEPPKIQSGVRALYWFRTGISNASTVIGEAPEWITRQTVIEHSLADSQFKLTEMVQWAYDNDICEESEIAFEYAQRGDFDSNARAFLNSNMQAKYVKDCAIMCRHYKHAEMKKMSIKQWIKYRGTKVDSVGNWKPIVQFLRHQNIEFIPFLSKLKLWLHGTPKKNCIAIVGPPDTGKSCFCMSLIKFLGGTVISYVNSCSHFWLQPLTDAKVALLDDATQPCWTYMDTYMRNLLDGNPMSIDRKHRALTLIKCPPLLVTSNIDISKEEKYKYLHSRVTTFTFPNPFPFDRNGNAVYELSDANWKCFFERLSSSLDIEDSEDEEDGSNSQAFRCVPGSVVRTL
- measurement-description: E1 ATPase activity assay ([γ33P]ATP hydrolysis, charcoal separation)
- condition-context: 20 μM ATP, 1 hour at 37° C., pH 7.0, read-out: Activity (IC50, concentration of test compound which inhibits enzyme activity by 50%)
- Excerpt: For assaying E1 ATPase activity the HPV E1 enzyme has been prepared and purified as follows: The HPV(11) E1 used in this assay is expressed as a maltose binding protein (MBP) fusion protein from SF9 cells using a baculovirus expression system. […] E1 ATPase activity can be measured as follows: […] The results can be calculated as follows: […]
Structures can show the parent of a compound that is named as a salt.
value-kind: pIC50
Numbers only, as −log10 of the molar value.

CN1CCN=C(/C=C/c2ccc(Cl)c(Cl)c2)c2cccnc21 [Example 29]: 5.52
CN1CCN=C(/C=C/c2ccc(Cl)c(Cl)c2)c2cc(NS(C)(=O)=O)ccc21 [Example 162]: 5.07
O=C(c1ccccc1)N1CCN=C(/C=C/c2ccc(Cl)c(Cl)c2)c2ccccc21 [Example 125, hydrochloride]: 5.25

Consider the following items and state reported pIC50 for each.
1. COC(=O)c1ccc(CN2CCN=C(/C=C/c3ccc(Cl)c(Cl)c3)c3ccccc32)cc1 [Example 127, dihydrochloride]
2. Cc1cc(C)n(COc2cccc(/C=C/C3=NCCN(C)c4ccccc43)c2)n1 [Example 92, dihydrochloride]
3. CN1CCN=C(/C=C/c2ccc(C#N)c(SCc3ccc(Cl)cc3)n2)c2ccc(Br)cc21 [Example 44, dihydrochloride]
4. CN1CCN=C(/C=C/c2cnccc2-c2cccc(Br)c2)c2ccccc21 [Example 6, dihydrochloride]
5. FC(F)(F)c1cccc2c1NCCN=C2/C=C/c1ccc(Cl)c(Cl)c1 [Example 38, dihydrochloride]
6. O=C(O)c1cccc(CN2CCN=C(/C=C/c3ccc(Cl)c(Cl)c3)c3ccccc32)c1 [Example 133, hydrochloride]
7. CN1CCN=C(/C=C/c2ccccc2Sc2ccc(Cl)cc2)c2ccccc21 [Example 121, dihydrochloride]
8. CN1CCN=C(/C=C/c2ccc(Cl)c(Cl)c2)c2ccc(-c3cccs3)cc21 [Example 164, hydrochloride]

A:
1: 5.66; 2: 4.72; 3: 5.60; 4: 5.38; 5: 5.25; 6: 5.51; 7: 5.80; 8: 4.92

Hi, could you look up pIC50 for each item in my list?
1. O=C(O)c1ccc(CN2CCN=C(/C=C/c3ccc(Cl)c(Cl)c3)c3ccccc32)cc1 [Example 132, dihydrochloride]
2. O=C(O)CN1CCN=C(/C=C/c2ccc(Cl)c(Cl)c2)c2ccccc21 [Example 137]
3. CC(C)N1CCN=C(/C=C/c2ccc(Cl)c(Cl)c2)c2ccccc21 [Example 123, dihydrochloride]
4. CN1CCN=C(/C=C/c2cnccc2-c2cccc(Br)c2)c2ccc(Br)cc21 [Example 42, dihydrochloride]
5. CN1CCN=C(/C=C/c2cccc(Oc3ccccc3)c2)c2ccccc21 [Example 3, dihydrochloride]

A:
[5.36, 4.70, 5.70, 5.62, 5.62]

The compound identified as CCOC(=O)c1ncn2c1CN=C(/C=C/c1ccc(Cl)c(Cl)c1)c1ccccc1-2 [Example 139] registered its pIC50 at 4.70
